Experiment: Quantitative High-Throughput drug screen in 47 multiple myeloma cell lines against the NCATS MIPE library collection: KMS34_JCRB cell viability assay (AID 1918985); further: nearly all actives have a fitted effect of over 40% in size; further: potency means the concentration at half of the fitted maximal effect
Conditions: KMS34 myeloma viability, CellTiter-Glo ATP luminescence, 48 h; series mostly up to 45.8 µM
Results filed as inconclusive are left out. Activity calls are given as the source filed them. The call rests on the fitted dose curve; in most records, active means well fitted cell-killing curve with a large enough effect; inconclusive means small, poorly fitted or top-dose-only effect, or effect the other way; inactive means no such curve, though single readings can be large or run the other way.
quantityMeasured: Potency

Solved entries (count: 6):
O=C1NC(=O)C(=Cc2cccc(C(F)(F)F)c2)S1 ... inactive
Clc1ccc(-c2nc3sccn3c2C=NOCc2ccc(Cl)c(Cl)c2)cc1 ... inactive
CO[C@H]1C(=O)[C@]2(C)[C@@H](OC)C[C@H]3OC[C@@]3(OC(C)=O)[C@H]2[C@H](OC(=O)c2ccccc2)[C@]2(O)C[C@H](OC(=O)[C@H](O)[C@@H](NC(=O)OC(C)(C)C)c3ccccc3)C(C)=C1C2(C)C ... inactive
NC[C@@H]1O[C@@H](O[C@H]2[C@@H](O)[C@H](O[C@@H]3[C@@H](O)[C@@H](N)C[C@H](N)[C@H]3O[C@H]3O[C@H](CN)[C@@H](O)[C@@H](O)[C@H]3N)O[C@H]2CO)[C@H](N)[C@@H](O)[C@@H]1O ... inactive
Cn1c(N2CCCCS2(=O)=O)nc(C(=O)NCc2ccc(F)cc2)c(O)c1=O ... inactive
COCCCCC(=NOCCN)c1ccc(C(F)(F)F)cc1 ... 3.72 µM (active)

So, CC1(C)O[C@H]2C[C@@H]3[C@H]4CCC5=CC(=O)C=C[C@]5(C)[C@@]4(F)[C@@H](O)C[C@]3(C)[C@]2(C(=O)CO)O1 ? Its Potency was 0.0118 µM (active)

So, CC(C)=CC[C@@H](O)C1=CC(=O)c2c(O)ccc(O)c2C1=O ? Its Potency was 1.05 µM (active)

So, NC(=O)NN=Cc1ccc([N+](=O)[O-])o1 ? Its Potency was inactive
